system-tested: T1, soluble human GPNMB (recombinant extracellular domain) (human, UniProt Q14956 23-498)
T1 construct: also called huGPNMB; recombinant human GPNMB extracellular domain; not shown: C-terminal polyhistidine or Avi-His tag
T1 sequence: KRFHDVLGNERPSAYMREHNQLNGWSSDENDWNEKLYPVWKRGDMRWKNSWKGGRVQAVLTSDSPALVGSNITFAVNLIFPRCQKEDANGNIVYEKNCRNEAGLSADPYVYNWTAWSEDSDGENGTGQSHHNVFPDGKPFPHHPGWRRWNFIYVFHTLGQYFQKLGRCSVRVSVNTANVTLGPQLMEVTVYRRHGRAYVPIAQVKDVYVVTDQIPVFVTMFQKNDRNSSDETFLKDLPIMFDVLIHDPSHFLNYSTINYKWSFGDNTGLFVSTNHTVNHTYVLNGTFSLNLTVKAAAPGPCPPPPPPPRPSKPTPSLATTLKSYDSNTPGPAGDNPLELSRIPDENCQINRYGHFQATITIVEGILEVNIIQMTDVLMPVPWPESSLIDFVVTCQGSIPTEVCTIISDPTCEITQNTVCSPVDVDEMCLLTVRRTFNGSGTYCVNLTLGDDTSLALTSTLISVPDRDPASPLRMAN
assay-comment: SPR Biacore, IgG captured
Values of kon strictly less than 200000 M⁻¹ s⁻¹ map to Fulfilled, and values of at least 200000 M⁻¹ s⁻¹ map to Not fulfilled.

binder	category-label
anti-GPNMB antibody GPN-84 (antibody, V domains shown) VH: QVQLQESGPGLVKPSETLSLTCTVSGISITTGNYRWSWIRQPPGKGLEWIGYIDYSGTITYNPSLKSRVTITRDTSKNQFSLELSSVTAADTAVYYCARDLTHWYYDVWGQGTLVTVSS VL: DIVMTQSPDSLAVSLGERATINCKSSRSVDYYGIGFVNWYQQKPGQPPKLLIYATSIQGSGVPDRFSGSGSGTDFTLTISSLQAEDVAVYYCQQQKEVPPTFGGGTKVEIK	Not fulfilled
anti-GPNMB antibody GPN-93 (antibody, V domains shown) VH: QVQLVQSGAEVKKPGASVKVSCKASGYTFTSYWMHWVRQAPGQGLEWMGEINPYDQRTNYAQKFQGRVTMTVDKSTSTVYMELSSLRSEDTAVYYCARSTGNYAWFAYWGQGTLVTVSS VL: DIVMTQSPDSLAVSLGERATINCKTSQDVSPSLAWYQQKPGQPPKLLIYSASKRYTGVPDRFSGSGSGTDFTLTISSLQAEDVAVYYCQQHYSIPLQFGGGTKVEIK	Fulfilled
anti-GPNMB antibody GPN-86 (antibody, V domains shown) VH: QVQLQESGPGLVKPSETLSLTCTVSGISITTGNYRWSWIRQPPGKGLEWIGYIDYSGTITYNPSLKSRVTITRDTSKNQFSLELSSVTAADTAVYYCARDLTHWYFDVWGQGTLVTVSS VL: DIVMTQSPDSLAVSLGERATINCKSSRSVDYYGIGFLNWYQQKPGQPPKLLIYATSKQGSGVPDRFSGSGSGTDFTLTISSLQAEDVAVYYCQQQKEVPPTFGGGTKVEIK	Not fulfilled
anti-GPNMB antibody GPN-96 (antibody, V domains shown) VH: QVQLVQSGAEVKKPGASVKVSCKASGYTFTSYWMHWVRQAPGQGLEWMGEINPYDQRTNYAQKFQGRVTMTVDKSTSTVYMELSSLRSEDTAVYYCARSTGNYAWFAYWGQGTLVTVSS VL: DIVMTQSPDSLAVSLGERATINCKASQDVSPSLAWYQQKPGQPPKLLIYRASYRYTGVPDRFSGSGSGTDFTLTISSLQAEDVAVYYCQQHYSIPLTFGGGTKVEIK	Fulfilled
anti-GPNMB antibody GPN-90 (antibody, V domains shown) VH: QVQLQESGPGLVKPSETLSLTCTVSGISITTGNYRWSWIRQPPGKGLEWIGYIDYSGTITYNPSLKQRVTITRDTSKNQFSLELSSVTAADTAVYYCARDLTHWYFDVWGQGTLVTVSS VL: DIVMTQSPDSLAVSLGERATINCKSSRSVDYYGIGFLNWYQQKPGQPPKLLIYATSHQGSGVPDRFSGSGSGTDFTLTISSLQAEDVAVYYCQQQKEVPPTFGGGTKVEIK	Fulfilled
anti-GPNMB antibody GPN-83 (antibody, V domains shown) VH: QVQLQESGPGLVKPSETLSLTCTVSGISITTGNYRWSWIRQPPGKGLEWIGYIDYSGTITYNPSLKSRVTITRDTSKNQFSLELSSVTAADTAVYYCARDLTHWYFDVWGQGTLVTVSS VL: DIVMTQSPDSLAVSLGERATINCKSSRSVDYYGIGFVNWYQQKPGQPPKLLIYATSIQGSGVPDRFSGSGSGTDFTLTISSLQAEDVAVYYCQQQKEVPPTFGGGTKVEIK	Not fulfilled
anti-GPNMB antibody GPN-97 (antibody, V domains shown) VH: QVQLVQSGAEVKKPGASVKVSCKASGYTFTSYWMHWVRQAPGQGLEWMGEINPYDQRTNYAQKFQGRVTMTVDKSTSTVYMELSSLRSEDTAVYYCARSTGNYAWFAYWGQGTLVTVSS VL: DIVMTQSPDSLAVSLGERATINCKTSQDVSPSLAWYQQKPGQPPKLLIYSGSYRYTGVPDRFSGSGSGTDFTLTISSLQAEDVAVYYCQQHYSIPLTFGGGTKVEIK	Fulfilled
anti-GPNMB antibody GPN-87 (antibody, V domains shown) VH: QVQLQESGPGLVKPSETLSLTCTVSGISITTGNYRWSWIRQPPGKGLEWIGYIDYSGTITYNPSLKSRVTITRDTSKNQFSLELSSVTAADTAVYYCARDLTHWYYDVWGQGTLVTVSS VL: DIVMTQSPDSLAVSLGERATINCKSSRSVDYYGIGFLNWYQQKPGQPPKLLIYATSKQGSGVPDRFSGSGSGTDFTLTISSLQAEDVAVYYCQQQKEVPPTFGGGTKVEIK	Not fulfilled
